FYI, the data here is from patent US12679850B2.

TESTED ON: human TYK2 (JH2domain-pseudokinase) (Homo sapiens, UniProt P29597)
Construct: host or cells: transiently transfected HEK293 cells; unpurified extract used
Sequence (P29597 556-888): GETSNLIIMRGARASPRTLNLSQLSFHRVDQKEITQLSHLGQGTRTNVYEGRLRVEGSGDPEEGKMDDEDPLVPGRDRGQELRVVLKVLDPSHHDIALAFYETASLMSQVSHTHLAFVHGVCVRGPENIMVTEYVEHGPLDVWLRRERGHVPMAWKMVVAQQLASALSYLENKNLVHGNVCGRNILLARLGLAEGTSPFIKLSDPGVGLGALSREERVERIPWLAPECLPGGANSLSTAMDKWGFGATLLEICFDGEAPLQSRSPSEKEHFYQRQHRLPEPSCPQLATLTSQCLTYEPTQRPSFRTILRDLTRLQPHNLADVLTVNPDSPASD
METHOD DESCRIPTION: TYK2 JH2 domain binding assay (KINOMEscan)
PARTICULARS: 11-point 3-fold dilution, top concentration 30,000 nM, duplicate
MEASUREMENT TYPE: Kd (pM)

[2H]C([2H])([2H])n1nnc2c3cc(cc21)CO[C@@H]1CCC[C@H]1NC(=O)c1cnc2c(NC)cc(nn12)N3 ... 2.2
